Overview of reported Ki across a group of compounds:
Biological target: human Factor Xa (Homo sapiens, UniProt P00742)
Sequence (P00742 235-488 limits assumed): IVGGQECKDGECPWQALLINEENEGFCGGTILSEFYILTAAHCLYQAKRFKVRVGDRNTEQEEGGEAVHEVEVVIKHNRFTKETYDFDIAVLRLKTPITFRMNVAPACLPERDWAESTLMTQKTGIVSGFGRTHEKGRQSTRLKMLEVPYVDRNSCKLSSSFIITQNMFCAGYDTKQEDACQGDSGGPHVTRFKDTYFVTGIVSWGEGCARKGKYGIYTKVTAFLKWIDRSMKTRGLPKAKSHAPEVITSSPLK
Sequence (P00742 41-179 partner limits assumed): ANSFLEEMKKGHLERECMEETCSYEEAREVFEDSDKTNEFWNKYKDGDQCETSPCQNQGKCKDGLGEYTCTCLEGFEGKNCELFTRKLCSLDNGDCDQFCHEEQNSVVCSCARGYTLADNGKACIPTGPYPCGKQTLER
Test: In vitro assay for inhibition of Factor Xa (2), fluorogenic assay
Type: biochemical
Details: substrate Rhodamine 110, bis-(CBZ-glycylglycyl-L-arginine amide 10 μM), Ki calculated from IC50

Record excerpt, results attached:
• CS(=O)(=O)c1ccccc1-c1ccc(N2CC[C@H](NS(=O)(=O)c3cnc(-c4ccc(Cl)s4)s3)C2=O)c(F)c1 = < 20 nM
• CS(=O)(=O)c1ccccc1-c1ccc(N2CC[C@H](NS(=O)(=O)c3cccc4cnccc34)C2=O)c(F)c1 = < 1000 nM
• CS(=O)(=O)c1ccccc1-c1ccc(N2CC[C@H](NS(=O)(=O)/C=C/c3ccc(Cl)cc3)C2=O)c(F)c1 = < 10 nM
• C/C(=C\S(=O)(=O)N[C@H]1CCN(c2ccc(I)cn2)C1=O)c1ccc(Cl)s1 = < 10 nM
• CSc1ccccc1-c1cnc(N2CC[C@H](NS(=O)(=O)c3ccc4cc(Cl)ccc4c3)C2=O)s1 = < 200 nM

// sample "CS(=O)(=O)c1ccccc1-c1ccc(N2CC[C@H](NS(=O)(=O)c3cc4ccc(Cl)cc4o3)C2=O)c(F)c1" , its Ki was < 10 nM

// sample "CC(C)(C)OC(=O)N([C@H]1CCN(c2ccc(-c3ccccc3S(C)(=O)=O)cc2F)C1=O)S(=O)(=O)/C=C/c1ccc(Cl)s1" , its Ki was < 10 nM

// sample "O=C1[C@@H](NS(=O)(=O)c2ccc3cc(Cl)ccc3c2)CCN1c1ccc(-c2ncccn2)cc1F" , its Ki was < 1000 nM

// sample "NC(=O)c1cccc(-c2ccc(N3CC[C@H](NS(=O)(=O)c4ccc5cc(Cl)ccc5c4)C3=O)c(F)c2)c1" , its Ki was < 10 nM

// sample "O=C1[C@@H](NS(=O)(=O)c2ccc3cc(Cl)ccc3c2)CCN1c1ccc(-c2cccnc2Cl)cc1F" , its Ki was < 10 nM

// sample "Cn1ccnc1-c1ccc(N2CC[C@H](NS(=O)(=O)c3ccc4cc(Cl)ccc4c3)C2=O)c(F)c1" , its Ki was < 10 nM

// sample "CS(=O)(=O)c1ccccc1-c1ccc(N2CC[C@H](NS(=O)(=O)c3cc4cc(Cl)ccc4o3)C2=O)c(F)c1" , its Ki was < 10 nM

// sample "NC(=O)c1ccc(N2CC[C@H](NS(=O)(=O)/C=C/c3ccc(Cl)s3)C2=O)nc1" , its Ki was < 200 nM

// sample "N#Cc1ccc(N2CC[C@H](NS(=O)(=O)/C=C/c3ccc(Cl)s3)C2=O)c(F)c1" , its Ki was < 200 nM

// sample "O=C1[C@@H](NS(=O)(=O)/C=C/c2ccc(Cl)s2)CCN1c1ccc(-c2ccccc2[N+](=O)[O-])cn1" , its Ki was < 10 nM
